% recovery, Flow overview
# testTarget: REFACTO® (recombinant factor VIII-like polypeptide consisting of amino acids 1-743 and 1638 through 2332 of human factor VIII) (human) (UniProt P00451)
# Sequence (P00451 20-762, chain 1 of 2): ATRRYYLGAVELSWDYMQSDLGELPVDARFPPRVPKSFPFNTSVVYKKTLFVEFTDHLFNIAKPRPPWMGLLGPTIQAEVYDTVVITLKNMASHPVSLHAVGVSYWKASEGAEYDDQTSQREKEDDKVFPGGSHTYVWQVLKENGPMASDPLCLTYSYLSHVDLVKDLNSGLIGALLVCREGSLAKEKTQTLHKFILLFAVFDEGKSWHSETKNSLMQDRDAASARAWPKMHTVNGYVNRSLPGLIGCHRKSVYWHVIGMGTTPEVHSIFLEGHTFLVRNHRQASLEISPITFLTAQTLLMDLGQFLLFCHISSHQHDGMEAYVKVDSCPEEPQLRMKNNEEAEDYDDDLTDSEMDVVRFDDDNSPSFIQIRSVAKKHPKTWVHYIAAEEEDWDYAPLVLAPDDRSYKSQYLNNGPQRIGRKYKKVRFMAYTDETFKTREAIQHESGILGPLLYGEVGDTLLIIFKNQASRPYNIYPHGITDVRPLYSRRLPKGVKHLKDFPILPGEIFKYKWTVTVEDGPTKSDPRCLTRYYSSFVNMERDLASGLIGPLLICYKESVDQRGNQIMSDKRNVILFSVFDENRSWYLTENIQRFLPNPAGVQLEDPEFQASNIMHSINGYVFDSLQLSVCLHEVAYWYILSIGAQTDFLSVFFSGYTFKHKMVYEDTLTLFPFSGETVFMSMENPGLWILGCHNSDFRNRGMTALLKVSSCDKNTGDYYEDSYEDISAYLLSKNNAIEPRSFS
# Sequence (P00451 1657-2351, chain 2 of 2): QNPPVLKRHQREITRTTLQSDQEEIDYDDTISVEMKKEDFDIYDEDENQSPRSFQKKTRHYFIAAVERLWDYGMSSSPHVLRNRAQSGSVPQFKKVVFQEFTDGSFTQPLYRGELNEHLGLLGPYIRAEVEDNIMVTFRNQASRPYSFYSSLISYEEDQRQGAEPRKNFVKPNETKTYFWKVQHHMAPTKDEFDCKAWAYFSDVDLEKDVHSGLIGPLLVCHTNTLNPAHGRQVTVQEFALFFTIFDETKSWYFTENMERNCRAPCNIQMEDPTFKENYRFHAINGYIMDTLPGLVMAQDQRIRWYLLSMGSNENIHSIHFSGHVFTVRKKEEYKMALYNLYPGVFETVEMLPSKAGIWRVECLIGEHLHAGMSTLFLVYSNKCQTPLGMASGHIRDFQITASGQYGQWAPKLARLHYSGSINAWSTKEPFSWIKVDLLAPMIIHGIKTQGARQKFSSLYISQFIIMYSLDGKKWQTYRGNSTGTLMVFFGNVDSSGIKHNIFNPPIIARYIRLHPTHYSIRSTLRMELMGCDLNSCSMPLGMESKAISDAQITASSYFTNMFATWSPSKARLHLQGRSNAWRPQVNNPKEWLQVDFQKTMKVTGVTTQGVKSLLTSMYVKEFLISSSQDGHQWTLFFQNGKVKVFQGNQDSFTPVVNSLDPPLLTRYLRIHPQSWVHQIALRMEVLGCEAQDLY
# assayNotes: affinity column, peptide on Toyopearl Formyl 650-M; target in fraction by RP-HPLC
Positions of bridges follow the written chain, without caps; N, C: chain ends. No end group written: not given here. *: point of attachment. NHNH2 = NN*
readoutType: % recovery, Flow (%)

# binder, unitOfMeasurement, numericValue
rows = [
    ("AEGTGDFGCSWLFPCPFDPGPEGGGS-NHNH2 (disulfide 9-15 (inferred)) [Affinity ligand CS-456]", "%", 3.4),
    ("AEGTGDFCWVFPFQHCADPGPEGGGS-NHNH2 (disulfide 8-16 (inferred)) [Affinity ligand CS-459]", "%", 1.6),
    ("AEGTGDFCWVFAFDHCHDPGPEGGGS-NHNH2 (disulfide 8-16 (inferred)) [Affinity ligand CS-458]", "%", 1.8),
    ("AEGTGDFCWVFPFHHCFDPGPEGGGS-NHNH2 (disulfide 8-16 (inferred)) [Affinity ligand CS-460]", "%", 24.6),
    ("AEGTGDHLCGAWFRPCDADPGPEGGGS-NHNH2 (disulfide 9-16 (inferred)) [Affinity ligand CS-454]", "%", 2.5),
    ("AEGTGDHPCGSWLRPCLHDPGPEGGGS-NHNH2 (disulfide 9-16 (inferred)) [Affinity ligand CS-453]", "%", 0),
    ("AEGTGDFHCIGVWFCLHDPGPEGGGS-NHNH2 (disulfide 9-15 (inferred)) [Affinity ligand CS-455]", "%", 65.8),
]
